# assayName: Solubility of Compound (V) in water and organic solvents
# Format: physicochemical
# conditions: isopropanol (pure solvent), organic solvent or mixture; iPrOH; read-out: Concentration in pure solvents (solubility)
reportedMetric: solubility

Q: For the molecule CCOC(=O)c1cn([C@H]2COCC[C@@H]2C#N)nc1N (racemic) , what solubility is on record?
Ans: < 5 mg/mL

====

# assayName: Solubility of Compound (V) in water and organic solvents
# Format: physicochemical
# conditions: methanol (pure solvent), organic solvent or mixture; MeOH; read-out: Concentration in pure solvents (solubility)
reportedMetric: solubility

Q: Need solubility of CCOC(=O)c1cn([C@H]2COCC[C@@H]2C#N)nc1N (racemic) , thanks.
Ans: < 50 mg/mL

====

# assayName: Solubility of Compound (V) in water and organic solvents
# Assay type: physicochemical
# conditions: water (pure solvent), water; read-out: Concentration in pure solvents (solubility)
reportedMetric: solubility

Q: Value lookup for solubility; key = CCOC(=O)c1cn([C@H]2COCC[C@@H]2C#N)nc1N (racemic) [Compound (V)]
Ans: < 5000 µg/mL

====

# assayName: Solubility of Compound (V) in water and organic solvents
# Assay type: physicochemical
# conditions: ethanol (pure solvent), organic solvent or mixture; EtOH; read-out: Concentration in pure solvents (solubility)
reportedMetric: solubility (µg/mL)
Report only the number, with the unit µg/mL understood.

Q: What does the record list as solubility for CCOC(=O)c1cn([C@H]2COCC[C@@H]2C#N)nc1N (racemic) ?
Ans: 10000

====

# assayName: Solubility of Compound (V) in water and organic solvents
# Type: physicochemical
# conditions: acetonitrile (pure solvent), organic solvent or mixture; read-out: Concentration in pure solvents (solubility)
reportedMetric: solubility

Q: For CCOC(=O)c1cn([C@H]2COCC[C@@H]2C#N)nc1N (racemic) , what is its reported solubility?
Ans: > 200 mg/mL
